- System: intestinal alkaline phosphatase [Mus musculus]
- Assay Explanation: mouse intestinal phosphatase enzyme activation – biochemical, luminescence, single concentration, confirmation (AID 434970)
- Condition Parameters: purified mouse IAP, CDP-Star luminescence, 30 min, at 10 µM; measured here: IAP activation factor, stronger effect = higher value
The whole screen tested about 11,000 compounds, of which about 310 (2.8%) were called active. Only a selection was taken, and actives are over-represented in it overall.
Parameter activation factor: see the listing below.
// no unit string in output, number only

Worked set:
Fill in the recorded activation factor for this compound, with intestinal alkaline phosphatase [Mus musculus] as test system: COc1cccc(NC(=O)N2CCCC2C(=O)NC(C)C)c1 (stereo not given)
0.971

Fill in the recorded activation factor for this compound, with intestinal alkaline phosphatase [Mus musculus] as test system: COc1cccc(NC(=O)NC(C)C2CC3CCC2C3)c1 (stereo not given)
1.97

Fill in the recorded activation factor for this compound, with intestinal alkaline phosphatase [Mus musculus] as test system: Cc1ccc(NC(=O)C2CCCNC2=O)nc1 (stereo not given)
0.929

***
Fill in the recorded activation factor for this compound, with intestinal alkaline phosphatase [Mus musculus] as test system: COc1cccc(NC(=O)NC2CCCCCCC2)c1
2.67

Fill in the recorded activation factor for this compound, with intestinal alkaline phosphatase [Mus musculus] as test system: CC(C)[C@H]1COCCS(=O)(=O)N1Cc1ccccc1-c1cccc2c1oc1ccccc12
0.927

Fill in the recorded activation factor for this compound, with intestinal alkaline phosphatase [Mus musculus] as test system: C#CCOCCOCCOCCNc1nc(N2CCN(C(=O)CCCCCCCCCCNC(=O)[C@H]([C@@H](C)CC)n3cc(CCCCN=C(N)N)nn3)CC2)nc(N2CCN(C(=O)CCCCCCCCCCNC(=O)[C@H](CO)n3cc(CCCCCN)nn3)CC2)n1
6.62

Fill in the recorded activation factor for this compound, with intestinal alkaline phosphatase [Mus musculus] as test system: COc1cc(NC(=O)NC2Cc3ccccc3C2)cc(OC)c1
2.69

---

Parameter activity change, negative = activation: see the listing below.
- Test system: intestinal alkaline phosphatase [Mus musculus]
- Assay Explanation: mouse intestinal phosphatase enzyme activation – biochemical, luminescence, single concentration, confirmation (AID 434970)
- Condition Parameters: purified mouse IAP, CDP-Star luminescence, 30 min, at 10 µM; stronger effect = lower value
Hit rate of the full screen: of about 11,000 compounds, about 310 (2.8%) were called active. The full list was thinned out, with actives kept by preference.
Numbers only here, please. The scale is %.

What measured activity change, negative = activation goes with COc1cc(=O)n(C)c2cc(N(C)C)ccc12 ?
8.35

What measured activity change, negative = activation goes with CC[C@]12c3[nH]c4cc(CCC(=O)N(C)C)ccc4c3CCN1C(=O)[C@@H](CC(=O)NC/C=C(\C)CCC=C(C)C)C[C@@H]2C(=O)N1CCN(C(=O)C2CC2)CC1 ?
-9.3

What measured activity change, negative = activation goes with Cc1csc(C(=O)O)c1-n1cccc1 ?
9.2

What measured activity change, negative = activation goes with CCOc1ccccc1N1CCN(S(=O)(=O)c2ccc3c4c(cccc24)C(=O)N3)CC1 ?
55.8

***
What measured activity change, negative = activation goes with Cc1cc(Br)cc2c1NC(=O)C2(c1c(C)n(C)n(-c2ccccc2)c1=O)c1c(C)n(C)n(-c2ccccc2)c1=O ?
-2.5

What measured activity change, negative = activation goes with O=C(NC1CCCCC1)N1CCN(c2ccccc2)CC1 ?
6.95

What measured activity change, negative = activation goes with Cc1ccc(CNC(=O)COC(=O)c2c(C)noc2C)cc1 ?
10.9

What measured activity change, negative = activation goes with CC(=O)Nc1ccc(NS(C)(=O)=O)cc1 ?
10.9

What measured activity change, negative = activation goes with CC(C)CCNC(=O)NC(=O)CSc1nnc(COc2ccccc2Cl)o1 ?
-4.3

What measured activity change, negative = activation goes with COc1ccc2[nH]c(=O)c(CN(C(C)=O)c3cccc(C)c3)cc2c1 ?
0.9

What measured activity change, negative = activation goes with Cc1noc2ncnc(Sc3c(Cl)cccc3Cl)c12 ?
9.4
